Assign TGI to each entry below.
tested on: ACHN renal; assay: NCI tumour cell line growth inhibition, 48 h
Give a bare numeral; the unit µM is implied.

Record "CSC1=CC(=O)c2ccccc2C1=O" / ACHN renal, TGI recorded as 3.07

Record "CC(C)=CCC/C(C)=C/Cc1c2c(c3oc(-c4ccc(O)c(O)c4)c(O)c(=O)c3c1O)C=CC(C)(C)O2" / ACHN renal, TGI recorded as 7.83

###

test system: HCT-116 colon; test: NCI tumour cell line growth inhibition, 48 h
Assign GI50 to each entry below.

Reported GI50 of COc1cc(/C=C2\CC3C4CCC5=CC(=O)CC[C@]5(C)C4CC[C@]3(C)C2=O)ccc1OCCN1CCCC1 (stereo not given in full) : 1.41 µM

Reported GI50 of "Cn1c2c(c3ccccc31)CCN1C[C@@H]3CCCC[C@H]3C[C@@H]21" : 3.19 µM

Reported GI50 of "CC(C)n1cc(-c2ccc3c(c2)N(C)CC3)c2c(NS(=O)(=O)c3ccn(C)n3)ccnc21" : 48 µM

Reported GI50 of "CC(C)[C@@]12C[C@@H](OC(=O)COC(=O)c3ccccc3)[C@@](C)(O1)[C@@H]1CC[C@@H](C)[C@H]1[C@@H]2OC(=O)/C=C/c1ccccc1" : > 100 µM

Reported GI50 of "O=C(Cc1cc(O)ccc1O)NO" : 18 µM
